Target: LRX5^ΔE-FLAG (Arabidopsis thaliana) (UniProt Q9SN46)
Sequence (Q9SN46 32-857, stated change not applied): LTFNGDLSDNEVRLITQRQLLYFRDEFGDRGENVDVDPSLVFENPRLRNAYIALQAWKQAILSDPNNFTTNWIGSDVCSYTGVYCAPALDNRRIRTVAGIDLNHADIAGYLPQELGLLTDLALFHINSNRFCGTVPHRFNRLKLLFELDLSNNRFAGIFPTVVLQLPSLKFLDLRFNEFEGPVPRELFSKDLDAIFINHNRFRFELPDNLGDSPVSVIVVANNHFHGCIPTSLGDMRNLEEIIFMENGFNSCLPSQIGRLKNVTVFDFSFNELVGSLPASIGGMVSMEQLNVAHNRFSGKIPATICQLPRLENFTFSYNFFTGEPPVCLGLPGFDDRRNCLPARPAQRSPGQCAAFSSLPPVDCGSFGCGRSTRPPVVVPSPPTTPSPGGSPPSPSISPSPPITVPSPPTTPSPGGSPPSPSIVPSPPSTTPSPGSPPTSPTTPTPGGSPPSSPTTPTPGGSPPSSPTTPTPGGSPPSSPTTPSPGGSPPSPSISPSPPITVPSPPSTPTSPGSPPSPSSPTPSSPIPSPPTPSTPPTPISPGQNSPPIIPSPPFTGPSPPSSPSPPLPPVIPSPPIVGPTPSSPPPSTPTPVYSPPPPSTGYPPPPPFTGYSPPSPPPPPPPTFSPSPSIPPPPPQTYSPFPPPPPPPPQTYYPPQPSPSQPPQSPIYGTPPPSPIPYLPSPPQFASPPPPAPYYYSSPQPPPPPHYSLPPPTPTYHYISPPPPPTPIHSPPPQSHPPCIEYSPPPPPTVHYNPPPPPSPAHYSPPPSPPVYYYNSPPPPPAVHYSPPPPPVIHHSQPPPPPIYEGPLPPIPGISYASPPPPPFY
Assay: BLI; BLITZ; LRX^ΔE-FLAG mixed with anti-FLAG M2 antibody and loaded onto a protein A biosensor; synthetic RALF1 peptide added at 0.2-200 μM; association 120 s, dissociation 120 s; sample diluent buffer (Pall FortéBio)
measured.parameter: pKd
Recall that pKd is obtained by taking minus log10 of the concentration measured in molar.

Entry ATTKYISYQSLKRNSVPCSRRGASYYNCQNGAQANPYSRGCSKIARCRS [synthetic RALF1 peptide] , pKd reported as 8.46

Just for reference, paper PMC7357788 is where these values come from.
